Catalogue of pKd readings, one per entry.
target: recombinant human ATX beta isoform with N-terminal purification tag (human, UniProt Q13822 49-863); experiment: SPR Biacore 3000, His-ATX beta captured on anti-Penta-His, mAb as analyte, bivalent analyte model
pKd: −log10 of the molar value.

Binder	pKd
mAb ATXB6 (antibody, V domains shown, Human IgG1/kappa from Fab F73) VH: QVQLVQSGAEVKKPGSSVKVSCKASGGTFSSYAISWVRQAPGQGLEWMGGIIPIFGTANYAQKFQGRVTITADESTSTAYMELSSLRSEDTAVYYCARDLYIYGDLDYWGQGTLVTVSS VL: DIQMTQSPSSLSASVGDRVTITCRASQSIGGWLNWYQQKPGKAPKLLIYTASSLQSGVPSRFSGSGSGTDFTLTISSLQPEDFATYYCQQSYTYPITFGQGTKVEIK	9.48
mAb ATXB3 (antibody, V domains shown, Human IgG1/kappa from Fab F17) VH: EVQLVQSGAEVKKPGESLKISCKGSGYSFTSYWIGWVRQMPGKGLEWMGIIYPGDSDTRYSPSFQGQVTISADKSISTAYLQWSSLKASDTAMYYCARPYGTFDYWGQGTLVTVSS VL: EIVLTQSPATLSLSPGERATLSCRASQSVADSLAWYQQKPGQAPRLLIYKASNRATGIPARFSGSGSGTDFTLTISSLEPEDFAVYYCQQSNGWPRTFGQGTKVEIK	9.15
mAb ATXB13 (antibody, V domains shown, Human IgG1/kappa from Fab F143) VH: QVQLVQSGAEVKKPGSSVKVSCKASGGTFSSYAISWVRQAPGQGLEWMGGIIPIFGTANYAQKFQGRVTITADESTSTAYMELSSLRSEDTAVYYCARDFSVYGDFDYWGQGTLVTVSS VL: DIQMTQSPSSLSASVGDRVTITCRASQSIAKWLNWYQQKPGKAPKLLIYAASSLQSGVPSRFSGSGSGTDFTLTISSLQPEDFATYYCQQSYSTPLTFGQGTKVEIK	9.22
